Tested on: complement
Assay details: Inhibition of complement mediated hemolysis
Format: cell-based
Study conditions: compound at 1 × 10^-6
Reported metric: Inhibition of complement mediated hemolysis (%)
Answers are plain numbers, in %.

Answered cases to consult:
INSERT INTO results (compound, tgt, units_symbol, quantitative_result) VALUES
  ('COC(=O)c1cc(C(=N)N)ccc1OC(=O)[C@H]1CC[C@H](CNC(=O)OCc2ccccc2)CC1 [Compound 18]', 'complement', '%', 11.4),
  ('N=C(N)c1ccc(OC(=O)c2ccc(OCc3ccccc3)cc2)c(C(=O)c2ccccc2)c1 [Compound 45]', 'complement', '%', 6.0),
  ('N=C(N)c1ccc(OC(=O)c2ccccc2)c(NC(=O)c2ccccc2)c1 [Compound 30, 4-amidino-2-benzoylaminophenyl benzoate]', 'complement', '%', 99.0);

Here's the next entry for you.
Please look up its Inhibition of complement mediated hemolysis (%): N=C(N)Nc1ccc(C(=O)Oc2ccc(C(=N)N)cc2[N+](=O)[O-])cc1 [Compound 70] 97.0

---

Tgt: Thrombin (Homo sapiens, UniProt P00734)
Assay details: biochemical
Study conditions: TAME hydrolysis; read-out: ID50, thrombin
pIC50: −log10 of the molar value.
Label Condition met when pIC50 is at or above 7; anything below gets Condition not met.

INSERT INTO results (compound, discrete_label) VALUES
  ('N=C(N)c1ccc(OC(=O)c2ccccc2)c(Cl)c1 [Compound 26, 4-amidino-2-chlorophenyl benzoate]', 'Condition met'),
  ('COc1cc(C(=N)N)ccc1OC(=O)c1ccccc1 [Compound 23, 4-amidino-2-methoxyphenyl benzoate]', 'Condition not met'),
  ('N=C(N)c1ccc(OC(=O)c2ccc(CN)cc2)c([N+](=O)[O-])c1 [Compound 62]', 'Condition not met'),
  ('COC(=O)c1cc(C(=N)N)ccc1OC(=O)[C@H]1CC[C@H](CNC(=O)OCc2ccccc2)CC1 [Compound 18]', 'Condition not met'),
  ('COc1cc(C(=N)N)ccc1OC(=O)[C@H]1CC[C@H](CNC(=O)OCc2ccccc2)CC1 [Compound 16]', 'Condition not met');

Let's switch to this compound now.
Evaluate N=C(N)c1ccc(OC(=O)c2ccc(O)cc2)c(C(=O)c2ccccc2)c1 [Compound 46] : pIC50 at minimum 7? Condition met

---

System: complement
Assay details: Inhibition of complement mediated hemolysis
Assay type: cell-based
Study conditions: compound at 1 × 10^-6
Record form. Attribute: Inhibition of complement mediated hemolysis (%). Fill in for each entry.
Numbers only, in %.

Here are 3 molecules together with their reported answers.
INSERT INTO assay_data (molecule, quantitative_result) VALUES
  ('N=C(N)c1ccc(OC(=O)[C@H]2CC[C@H](CN)CC2)c(C(=O)c2ccccc2)c1 [Compound 21]', 60.2),
  ('CNC(=S)Nc1ccc(C(=O)Oc2ccc(C(=N)N)cc2C(=O)c2ccccc2)cc1 [Compound 79]', 81.7),
  ('COc1cc(C(=N)N)ccc1OC(=O)c1ccc(NC(=N)N)cc1Cl [Compound 76]', 0);

Any idea what Inhibition of complement mediated hemolysis (%) was measured for N=C(N)c1ccc(OC(=O)c2ccc(CNC(=O)OCc3ccccc3)cc2)c([N+](=O)[O-])c1 [Compound 61] ? 98.0

---

Consider the following compounds; for each one, report its Inhibition of complement mediated hemolysis (%).
Test system: complement
Assay details: Inhibition of complement mediated hemolysis
Type: cell-based
Study conditions: compound at 1 × 10^-6
Give bare numbers, in %.

Sample answers from the record:
INSERT INTO results (compound, tgt, units_symbol, quantitative_result) VALUES
  ('CC(=O)Oc1ccc(CCC(=O)Oc2ccc(C(=N)N)cc2C(=O)c2ccccc2)cc1', 'complement', '%', 60.8),
  ('COc1cc(C(=N)N)ccc1OC(=O)[C@H]1CC[C@H](CNC(=O)OCc2ccccc2)CC1', 'complement', '%', 17.4),
  ('N=C(N)c1ccc(OC(=O)CCCCCNC(=O)OCc2ccccc2)c(C(=O)c2ccccc2)c1', 'complement', '%', 15.0),
  ('COc1cc(C(=N)N)ccc1OC(=O)c1ccc([N+](=O)[O-])c(C)c1', 'complement', '%', 0),
  ('N=C(N)NCCCCCC(=O)Oc1ccc(C(=N)N)cc1C(=O)c1ccccc1', 'complement', '%', 12.7),
  ('N=C(N)c1ccc(OC(=O)c2ccccc2)c([N+](=O)[O-])c1 [Compound 27, 4-amidino-2-nitrophenyl benzoate]', 'complement', '%', 95.5),
  ('N=C(N)c1ccc(OC(=O)c2ccc(CNC(=O)OCc3ccccc3)cc2)c(C(=O)c2ccccc2)c1', 'complement', '%', 98.0),
  ('CC=CC=CC(=O)Oc1ccc(C(=N)N)cc1C(=O)OC', 'complement', '%', 47.2);

Please look at the items below and tell me Inhibition of complement mediated hemolysis (%) for each one, in order.
1. N=C(N)c1ccc(OC(=O)c2ccc(CN)cc2)c([N+](=O)[O-])c1
2. CC(C(=O)Oc1ccc(C(=N)N)cc1C(=O)c1ccccc1)c1ccc(Cl)cc1 (centres unmarked)
3. CCCCCCC(=O)Oc1ccc(C(=N)N)cc1C(=O)c1ccccc1
4. COC(=O)c1cc(C(=N)N)ccc1OC(=O)c1ccc(C=O)cc1
5. COc1cc(C(=N)N)ccc1OC(=O)CCCCCNC(=N)N

1. 100
2. 53.6
3. 8.7
4. 15.0
5. 7.0

// input: 3 compounds below; output: Inhibition of complement mediated hemolysis (%) for each
1. N=C(N)c1ccc(OC(=O)[C@H]2CC[C@H](CNC(=O)OCc3ccccc3)CC2)c(C(=O)c2ccccc2)c1
2. CC(=O)Oc1ccc(C=CC(=O)Oc2ccc(C(=N)N)cc2C(=O)c2ccccc2)cc1
3. Cc1cccc(C(=O)Oc2ccc(C(=N)N)cc2[N+](=O)[O-])c1

13.0
79.4
100

# lookup: Inhibition of complement mediated hemolysis (%) of N=C(N)Nc1ccc(C(=O)Nc2cc(C(=N)N)ccc2OC(=O)c2ccc(NC(=N)N)cc2)cc1 89.9
